Biological target: T1, hAng-1 (human, UniProt Q15389)
T1 chain: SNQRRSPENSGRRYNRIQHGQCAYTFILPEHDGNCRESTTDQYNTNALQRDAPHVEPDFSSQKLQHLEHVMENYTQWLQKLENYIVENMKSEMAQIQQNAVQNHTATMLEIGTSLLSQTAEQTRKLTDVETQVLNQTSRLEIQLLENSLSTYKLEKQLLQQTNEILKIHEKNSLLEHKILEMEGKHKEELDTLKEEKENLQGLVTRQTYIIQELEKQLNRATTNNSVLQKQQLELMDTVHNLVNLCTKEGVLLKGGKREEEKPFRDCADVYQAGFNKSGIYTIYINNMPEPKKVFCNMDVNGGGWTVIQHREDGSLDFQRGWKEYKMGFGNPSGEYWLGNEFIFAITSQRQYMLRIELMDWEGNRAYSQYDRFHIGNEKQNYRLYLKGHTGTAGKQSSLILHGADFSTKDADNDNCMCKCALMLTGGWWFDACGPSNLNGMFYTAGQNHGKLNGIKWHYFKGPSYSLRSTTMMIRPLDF
Test: competition ELISA (no inhibition)
Measured property: binding result

Ab 540 (antibody, V domains shown) VH: QVQLVQSGAEVKKPGSSVKVSCKASGGTFSSYAISWVRQAPGQGLEWMGGIIPILGIANYAQKFQGRVTITADKFTSTAYMELSSLGSEDTAVYYCARAVPGTEDAFDIWGQGTMVTVSS VL: QSVLTQPPSVSAAPGQKVTISCSGSSSNIGANYVSWYQQLPGTAPKLLIYNNNKRPSGIPDRFSGSKSDTSATLGITGLQTGDEADYYCGAWDSSLSASWVFGGGTKLTVL = no binding
Ab 535 (antibody, V domains shown) VH: QVQLVQSGAEVKKPGSSVKVSCKASGGTFSSYAISWVRQAPGQGLEWMGGIIPIFGTANYAQKFQGRVTITADKSTSTAYMELSSLRSEDTAVYYCAAFSPFTETDAFDIWGQGTMVTVSS VL: QSVLTQPPSVSAAPGQKVTISCSGSNSNIGNNFVSWYQQLPGTAPKLLVYDNNKRPSGIPDRFSGSKSGTSATLGITGLQTGDEADYYCGTWDSSLSAAEVVFGGGTKLTVL = no binding
